Let's look at some molecules and their measured pIC50.
subject-of-test: UniProtKB P35408
Sequence (P35408 whole entry): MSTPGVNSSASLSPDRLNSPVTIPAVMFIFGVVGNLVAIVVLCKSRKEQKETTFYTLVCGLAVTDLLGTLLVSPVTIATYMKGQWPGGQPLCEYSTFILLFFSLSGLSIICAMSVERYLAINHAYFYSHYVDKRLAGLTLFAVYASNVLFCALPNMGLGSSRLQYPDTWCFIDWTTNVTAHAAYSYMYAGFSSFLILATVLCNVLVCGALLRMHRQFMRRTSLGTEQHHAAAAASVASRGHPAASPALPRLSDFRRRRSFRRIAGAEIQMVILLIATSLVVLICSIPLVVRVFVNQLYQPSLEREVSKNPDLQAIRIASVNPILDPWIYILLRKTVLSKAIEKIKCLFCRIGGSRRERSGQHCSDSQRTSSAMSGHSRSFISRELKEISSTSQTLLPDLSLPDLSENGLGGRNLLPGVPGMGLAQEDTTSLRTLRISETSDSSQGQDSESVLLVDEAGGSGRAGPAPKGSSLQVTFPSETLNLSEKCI
experimental-protocol: EP4 Antagonism by CRE-PLAP Reporter Assay (SE302 cells, PGE2-stimulated)
assay-setup: SE302 (HEK293) cells, 3 ng/mL PGE2, overnight; single or multiple assay average values
Note on units: pIC50 is unitless, being -log10 of a concentration expressed in mol/L.

Answered examples (10):
C[C@H](NC(=O)c1c(C(F)(F)F)nn2c1N(Cc1cccc(OC(F)(F)F)c1)CC2)c1ccc(C(=O)NS(=O)(=O)c2ccccc2)cc1 | 7.66
C[C@H](NC(=O)c1c(C(F)(F)F)nn2c1N(Cc1ccc(C(F)(F)F)cc1)CC2)c1ccc(C2CC2)cc1 | 6.51
C[C@H](NC(=O)c1c(C(F)(F)F)nn2c1N(Cc1cccc(CO)c1)CC2)c1ccc(C(=O)O)cc1 | 9.09
C[C@H](NC(=O)c1c(C(F)(F)F)nn2c1N(Cc1cccc(C(F)(F)F)c1)CC2)c1ccc(C(=O)O)cn1 | 8.33
C[C@H](NC(=O)c1c(C(F)(F)CO)nn2c1N(Cc1cccc(C(F)(F)F)c1)CC2)c1ccc(C(=O)O)cc1 | 8.05
C[C@H](NC(=O)c1c(C(F)(F)F)nn2c1N(Cc1ccc(O)cc1)CC2)c1ccc(C(=O)O)cc1 | 8.83
C[C@H](NC(=O)c1c(C(F)(F)F)nn2c1N(Cc1cccc(C(F)(F)F)c1)CC2)c1ccc(C(=O)O)cc1F | 9.39
C[C@H](NC(=O)c1c(C(F)(F)F)nn2c1N(Cc1cc(Cl)cc(Cl)c1)CC2)c1ccc(C(=O)O)cc1 | 9.49
C[C@H](NC(=O)c1c(C(F)F)nn2c1N(Cc1cccc(C(F)(F)F)c1)CC2)c1ccc(C(=O)O)cc1 | 9.46
C[C@H](NC(=O)c1c(C(F)(F)F)nn2c1N(Cc1ccc(CCCF)cc1)CC2)c1ccc(C(=O)O)cc1 | 7.66

Provide pIC50, tested on UniProtKB P35408, for C[C@H](NC(=O)c1c(C(F)(F)F)nn2c1N(Cc1ccc(C(F)(F)F)cc1)CC2)c1ccc(C(=O)O)c(F)c1 .
8.55

Give pIC50; test system UniProtKB P35408; molecule Cc1cc([C@H](C)NC(=O)c2c(C(F)(F)F)nn3c2N(Cc2ccc(C(F)(F)F)cc2)CC3)ccc1-c1nn[nH]n1
8.33

Send back UniProtKB P35408 pIC50 of C[C@H](NC(=O)c1c(C(F)(F)F)nn2c1N(Cc1ccccc1F)CC2)c1ccc(C(=O)O)cc1 only.
8.85

Report pIC50 under test system UniProtKB P35408 for COC(=O)c1ccc([C@H](C)NC(=O)c2c(C(F)(F)F)nn3c2N(Cc2cccc(C(F)(F)F)c2)CC3)cc1F .
8.09

Report the value of pIC50 obtained on UniProtKB P35408 for C[C@H](NC(=O)c1c(C(F)(F)F)nn2c1N(Cc1cccc(CF)c1)CC2)c1ccc(C(=O)O)cc1 .
8.92

GET pIC50 where system = UniProtKB P35408 and item = C[C@H](NC(=O)c1c(C(F)(F)F)nn2c1N(Cc1cccc(CCl)c1)CC2)c1ccc(C(=O)O)cc1
9.03

GET pIC50 | system: UniProtKB P35408 | item: C[C@H](NC(=O)c1c(C(F)(F)F)nn2c1N(Cc1cccc(C(F)(F)F)c1)CC2)c1ccc(C(=O)O)nc1
7.77

Please respond with reported pIC50 (system UniProtKB P35408) for Cc1nn2c(c1C(=O)NCc1ccc(C(=O)O)cc1)N(Cc1ccc(Cl)cc1)CC2 .
7.56
